- Protocol text: Chemical stability in aqueous buffer containing 5% DMSO and 5% tween 80 at pH 7.4 assessed as compound recovery in anoxic conditions after 6 hrs by UPLC analysis
- Format: physicochemical
- Run parameters: read-out: Stability
Measurement kind: remaining at 6 h (%)
One number for each entry, in %.

Compound smiles: CN1CCN(CCCC(=O)Oc2ccc(-c3ccc(/C=C/C(=O)O)cc3)cc2C23CC4CC(CC(C4)C2)C3)CC1
remaining at 6 h [%]: 89

Compound smiles: O=C(O)/C=C/c1ccc(-c2ccc(OC(=O)CCCN3CCOCC3)c(C34CC5CC(CC(C5)C3)C4)c2)cc1
remaining at 6 h [%]: 99

Compound smiles: NC1(C(=O)Oc2ccc(-c3ccc(/C=C/C(=O)O)cc3)cc2C23CC4CC(CC(C4)C2)C3)CC1.O=C(O)C(F)(F)F
remaining at 6 h [%]: 88

Hi, could you look up remaining at 6 h for each item in my list?
1. CNCCNC(=O)Oc1ccc(-c2ccc(/C=C/C(=O)O)cc2)cc1C12CC3CC(CC(C3)C1)C2.Cl
2. CC(C)[C@H](N)C(=O)Oc1ccc(-c2ccc(/C=C/C(=O)O)cc2)cc1C12CC3CC(CC(C3)C1)C2.Cl

Response:
1: 76; 2: 62

----------
Record form. Attribute: pIC50. Fill in for each entry.
- Tested on: NCI-H460
- Protocol text: Antiproliferative activity against human NCI-H460 cells incubated for 24 hrs drug exposure measured after 48 hrs of recovery by sulforhodamine B assay
- Type: functional, cell-based
Answers are plain numbers, as −log10 of the molar value.

Some solved entries appear below for comparison.
Compound smiles: CCCCCCCCCCC(=O)Oc1ccc(-c2ccc(/C=C/C(=O)O)cc2)cc1C12CC3CC(CC(C3)C1)C2
pIC50: 5.81
--
Compound smiles: CN1CCN(CCCC(=O)Oc2ccc(-c3ccc(/C=C/C(=O)O)cc3)cc2C23CC4CC(CC(C4)C2)C3)CC1
pIC50: 6.62
--
Compound smiles: O=C(O)/C=C/c1ccc(-c2ccc(OC(=O)CCCN3CCOCC3)c(C34CC5CC(CC(C5)C3)C4)c2)cc1
pIC50: 6.66
--
Compound smiles: O=C(O)/C=C/c1ccc(-c2ccc(OCN3C(=O)c4ccccc4C3=O)c(C34CC5CC(CC(C5)C3)C4)c2)cc1
pIC50: 5.08
--
Compound smiles: Cl.O=C(O)/C=C/c1ccc(-c2ccc(OC(=O)NCCN3CCOCC3)c(C34CC5CC(CC(C5)C3)C4)c2)cc1
pIC50: 6.04

Hi, could you look up pIC50 for each item in my list?
1. O=C(O)/C=C/c1ccc(-c2ccc(O)c(C34CC5CC(CC(C5)C3)C4)c2)cc1
2. CC(C)[C@H](N)C(=O)Oc1ccc(-c2ccc(/C=C/C(=O)O)cc2)cc1C12CC3CC(CC(C3)C1)C2.Cl
3. O=C(O)/C=C/c1ccc(-c2ccc(OC(=O)COCCOCCOCC(=O)O)c(C34CC5CC(CC(C5)C3)C4)c2)cc1
4. Cl.NCCCCNC(=O)Oc1ccc(-c2ccc(/C=C/C(=O)O)cc2)cc1C12CC3CC(CC(C3)C1)C2
5. CCCCC/C=C/C/C=C/CCCCCCCC(=O)Oc1ccc(-c2ccc(/C=C/C(=O)O)cc2)cc1C12CC3CC(CC(C3)C1)C2
6. CC(C)NC(=O)Oc1ccc(-c2ccc(/C=C/C(=O)O)cc2)cc1C12CC3CC(CC(C3)C1)C2

Response:
6.70
6.29
6.77
5.59
5.11
5.30

Hi, could you look up pIC50 for each item in my list?
1. O=C(O)/C=C/c1ccc(-c2ccc(OC(=O)C3CC3)c(C34CC5CC(CC(C5)C3)C4)c2)cc1
2. CC(C)C[C@H](NC(=O)Oc1ccc(-c2ccc(/C=C/C(=O)O)cc2)cc1C12CC3CC(CC(C3)C1)C2)C(=O)NCC(=O)O
3. CNCCNC(=O)Oc1ccc(-c2ccc(/C=C/C(=O)O)cc2)cc1C12CC3CC(CC(C3)C1)C2.Cl

Response:
1. 6.07
2. 5.46
3. 6.62

The molecule listed as "N#CCOc1ccc(-c2ccc(/C=C/C(=O)O)cc2)cc1C12CC3CC(CC(C3)C1)C2" has a reported pIC50 of 6.07

----------
- Protocol text: Chemical stability in aqueous buffer containing 5% DMSO and 5% tween 80 at pH 6.8 assessed as compound recovery in anoxic conditions after 6 hrs by UPLC analysis
- Type: physicochemical
- Run parameters: read-out: Stability
Record form. Attribute: remaining at 6 h. Fill in for each entry.
Answers are plain numbers, in %.

Some solved entries appear below for comparison.
Compound smiles: CC(C)[C@H](N)C(=O)Oc1ccc(-c2ccc(/C=C/C(=O)O)cc2)cc1C12CC3CC(CC(C3)C1)C2.Cl
remaining at 6 h / %: 92
--
Compound smiles: CN1CCN(CCCC(=O)Oc2ccc(-c3ccc(/C=C/C(=O)O)cc3)cc2C23CC4CC(CC(C4)C2)C3)CC1
remaining at 6 h / %: 98
--
Compound smiles: O=C(O)/C=C/c1ccc(-c2ccc(OC(=O)CCCN3CCOCC3)c(C34CC5CC(CC(C5)C3)C4)c2)cc1
remaining at 6 h / %: 99

Please find the next compound below.
The compound listed as "CNCCNC(=O)Oc1ccc(-c2ccc(/C=C/C(=O)O)cc2)cc1C12CC3CC(CC(C3)C1)C2.Cl" has a reported remaining at 6 h of 92

----------
- System: Plasma
- Protocol text: Prodrug conversion in mouse plasma assessed as drug concentration at 1 hr
- Assay type: ADME, cell-free
Record form. Attribute: Drug metabolism. Fill in for each entry.
Give bare numbers, in %.

Some solved entries appear below for comparison.
Compound smiles: CNCCNC(=O)Oc1ccc(-c2ccc(/C=C/C(=O)O)cc2)cc1C12CC3CC(CC(C3)C1)C2.Cl
Drug metabolism / %: 99.8
//
Compound smiles: Cl.O=C(O)/C=C/c1ccc(-c2ccc(OC(=O)N3CCC(N4CCCCC4)CC3)c(C34CC5CC(CC(C5)C3)C4)c2)cc1
Drug metabolism / %: 100
//
Compound smiles: NC1(C(=O)Oc2ccc(-c3ccc(/C=C/C(=O)O)cc3)cc2C23CC4CC(CC(C4)C2)C3)CC1.O=C(O)C(F)(F)F
Drug metabolism / %: 96.87

The molecule listed as "O=C(O)/C=C/c1ccc(-c2ccc(OC(=O)C3CC3)c(C34CC5CC(CC(C5)C3)C4)c2)cc1" has a reported Drug metabolism of 100

----------
- Test system: Plasma
- Protocol text: Prodrug conversion in mouse plasma assessed as drug concentration at 0.5 hrs
- Format: ADME, cell-free
Record form. Attribute: Drug metabolism. Fill in for each entry.
Returns: string containing the number followed by the unit.

Hi, could you look up Drug metabolism for each item in my list?
1. O=C(O)/C=C/c1ccc(-c2ccc(OC(=O)C3CC3)c(C34CC5CC(CC(C5)C3)C4)c2)cc1
2. NC1(C(=O)Oc2ccc(-c3ccc(/C=C/C(=O)O)cc3)cc2C23CC4CC(CC(C4)C2)C3)CC1.O=C(O)C(F)(F)F
3. Cl.O=C(O)/C=C/c1ccc(-c2ccc(OC(=O)N3CCC(N4CCCCC4)CC3)c(C34CC5CC(CC(C5)C3)C4)c2)cc1
4. CNCCNC(=O)Oc1ccc(-c2ccc(/C=C/C(=O)O)cc2)cc1C12CC3CC(CC(C3)C1)C2.Cl

Response:
1. 100%
2. 97.02%
3. 100%
4. 96.23%
